Please respond with reported IC50 for every item in the list.
Target: ACC2 (Homo sapiens, UniProt O00763)
Sequence (O00763 whole entry, species assumed): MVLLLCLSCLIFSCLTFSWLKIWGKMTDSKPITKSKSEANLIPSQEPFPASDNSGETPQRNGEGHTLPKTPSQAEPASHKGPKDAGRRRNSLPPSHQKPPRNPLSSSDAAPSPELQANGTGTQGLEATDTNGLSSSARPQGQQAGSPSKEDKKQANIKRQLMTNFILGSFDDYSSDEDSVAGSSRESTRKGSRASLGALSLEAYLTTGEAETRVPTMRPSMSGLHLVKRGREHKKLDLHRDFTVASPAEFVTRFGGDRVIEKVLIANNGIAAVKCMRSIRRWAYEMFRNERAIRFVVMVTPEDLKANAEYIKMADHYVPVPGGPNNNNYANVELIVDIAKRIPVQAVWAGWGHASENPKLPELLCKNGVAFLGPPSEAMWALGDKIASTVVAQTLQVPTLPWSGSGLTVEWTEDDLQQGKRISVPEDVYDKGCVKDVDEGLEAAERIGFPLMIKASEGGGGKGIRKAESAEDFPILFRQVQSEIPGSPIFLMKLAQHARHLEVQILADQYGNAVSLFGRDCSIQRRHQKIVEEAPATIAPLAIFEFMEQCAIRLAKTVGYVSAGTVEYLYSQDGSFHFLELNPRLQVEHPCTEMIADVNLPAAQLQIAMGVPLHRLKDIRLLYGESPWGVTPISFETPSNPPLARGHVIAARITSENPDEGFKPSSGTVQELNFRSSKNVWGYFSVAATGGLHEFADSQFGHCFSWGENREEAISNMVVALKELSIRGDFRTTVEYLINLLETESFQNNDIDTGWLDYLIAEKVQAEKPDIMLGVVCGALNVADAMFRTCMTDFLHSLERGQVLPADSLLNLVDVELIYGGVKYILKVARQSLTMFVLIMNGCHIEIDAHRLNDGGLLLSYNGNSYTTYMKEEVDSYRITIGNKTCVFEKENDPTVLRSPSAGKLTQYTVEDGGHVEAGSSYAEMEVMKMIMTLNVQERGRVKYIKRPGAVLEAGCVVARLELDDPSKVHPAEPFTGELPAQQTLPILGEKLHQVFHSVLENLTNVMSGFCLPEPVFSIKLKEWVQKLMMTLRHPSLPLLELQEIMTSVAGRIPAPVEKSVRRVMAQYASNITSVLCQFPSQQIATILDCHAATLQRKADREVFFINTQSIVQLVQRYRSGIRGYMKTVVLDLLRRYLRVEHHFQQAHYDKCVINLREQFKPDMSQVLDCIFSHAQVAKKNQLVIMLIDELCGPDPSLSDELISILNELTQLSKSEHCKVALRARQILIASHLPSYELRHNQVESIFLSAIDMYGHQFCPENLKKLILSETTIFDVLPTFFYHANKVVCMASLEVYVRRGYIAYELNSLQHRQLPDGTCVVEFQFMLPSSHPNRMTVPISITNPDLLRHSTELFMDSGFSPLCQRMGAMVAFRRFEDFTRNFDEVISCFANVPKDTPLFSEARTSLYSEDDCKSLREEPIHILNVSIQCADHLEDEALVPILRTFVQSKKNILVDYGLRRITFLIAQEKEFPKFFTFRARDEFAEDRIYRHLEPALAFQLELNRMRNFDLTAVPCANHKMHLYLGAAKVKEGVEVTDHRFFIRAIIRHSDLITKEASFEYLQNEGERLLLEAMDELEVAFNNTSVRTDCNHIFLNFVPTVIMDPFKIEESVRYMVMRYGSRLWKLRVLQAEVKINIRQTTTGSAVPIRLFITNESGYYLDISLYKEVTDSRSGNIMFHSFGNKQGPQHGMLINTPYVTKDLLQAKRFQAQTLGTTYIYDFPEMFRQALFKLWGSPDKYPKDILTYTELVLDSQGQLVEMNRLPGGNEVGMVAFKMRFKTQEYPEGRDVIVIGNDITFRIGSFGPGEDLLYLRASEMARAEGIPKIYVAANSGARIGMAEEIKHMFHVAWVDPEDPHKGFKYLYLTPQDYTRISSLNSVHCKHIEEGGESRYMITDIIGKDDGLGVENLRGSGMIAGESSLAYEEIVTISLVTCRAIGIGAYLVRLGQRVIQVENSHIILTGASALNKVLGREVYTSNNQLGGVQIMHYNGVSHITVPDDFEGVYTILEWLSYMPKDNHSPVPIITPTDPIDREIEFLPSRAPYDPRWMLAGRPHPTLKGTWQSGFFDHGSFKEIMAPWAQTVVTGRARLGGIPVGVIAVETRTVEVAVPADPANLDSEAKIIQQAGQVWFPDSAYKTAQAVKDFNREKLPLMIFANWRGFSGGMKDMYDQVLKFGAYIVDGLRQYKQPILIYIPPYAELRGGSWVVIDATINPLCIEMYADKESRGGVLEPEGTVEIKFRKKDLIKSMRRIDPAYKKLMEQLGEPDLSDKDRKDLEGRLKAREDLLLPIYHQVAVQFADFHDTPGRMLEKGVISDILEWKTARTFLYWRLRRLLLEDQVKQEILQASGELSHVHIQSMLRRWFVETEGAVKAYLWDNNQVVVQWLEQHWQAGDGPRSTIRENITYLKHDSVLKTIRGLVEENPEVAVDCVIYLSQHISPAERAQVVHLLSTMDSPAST
Experiment: In vitro ACC2 inhibition assay (ADP-Glo)
Format: biochemical
Details: read-out: ACC2

These recorded examples may help you get a feel for the data.
CCOC(=O)c1sc2c(c1C)c(=O)n(CC(=O)O)c(=O)n2CCc1ccccc1Br [I-54]	5 to 20 µM
CCOC(=O)c1sc2c(c1C)c(=O)n(CCO)c(=O)n2CCC1CCCCC1 [I-28]	> 50 µM
CCOC(=O)c1sc2c(c1C)c(=O)n(CCO)c(=O)n2CCc1cccc(Cl)c1 [I-21]	> 50 µM

Please state IC50 for every compound in the list that follows.
1. CCOC(=O)c1sc2c(c1C)c(=O)n(CC(=O)NCCO)c(=O)n2CCc1ccccc1 [I-48]
2. Cc1c(-c2ncco2)sc2c1c(=O)n(C(C)(C)C(=O)O)c(=O)n2C[C@H](O[C@@H]1CCOC1)c1ccccc1 [I-186]
3. Cc1c(-c2ncco2)sc2c1c(=O)n(C(C)(C)C(=O)O)c(=O)n2C[C@H](O[C@H]1CC[C@H](O)CC1)c1ccccc1 [I-165]
4. CCOC(=O)c1sc2c(c1C)c(=O)n(C(C)(C)C(=O)O)c(=O)n2CCc1ccccc1OC [I-93]
5. COc1ccccc1[C@H](Cn1c(=O)n(CC(N)=O)c(=O)c2c(C)c(-c3ncco3)sc21)OC1CCOCC1 [I-288]
6. CCOC(=O)c1sc2c(c1C)c(=O)n(CCO)c(=O)n2CCc1nccs1 [I-49]

["5 to 20 µM", "< 1 µM", "< 0.1 µM", "< 1 µM", "< 0.1 µM", "> 50 µM"]

Please state IC50 for every compound in the list that follows.
1. Cc1c(-n2cncn2)sc2c1c(=O)n(C(C)(C)C(=O)O)c(=O)n2C[C@H](OC(C)C)c1ccccc1 [I-157]
2. Cc1c(-c2ncco2)sc2c1c(=O)n(C(C)(C)C(=O)O)c(=O)n2CCOC(C)C [I-234]
3. CCOC(=O)c1sc2c(c1C)c(=O)n(C(C)(C)C(=O)O)c(=O)n2CCc1ccccc1OC(F)(F)F [I-106]
4. Cc1c(-c2ncco2)sc2c1c(=O)n(C(C)(C)C(=O)O)c(=O)n2C[C@H](OC1CCC(O)CC1)c1ccccc1 (stereo partly shown) [I-164]
5. CCOC(=O)c1sc2c(c1C)c(=O)n(CC(=O)O)c(=O)n2Cc1ccc2[nH]ccc2c1 [I-90]
6. Cc1c(-c2ncco2)sc2c1c(=O)n(C(C)(C)C(=O)O)c(=O)n2C[C@H](OCC(C)(C)O)c1ccccc1 [I-175]
7. CCNC(=O)C(C)(C)n1c(=O)c2c(C)c(-c3ncco3)sc2n(C[C@H](OC(C)C)c2ccccc2OC)c1=O [I-236]

1: 20 to 50 µM; 2: < 5 µM; 3: < 5 µM; 4: < 0.1 µM; 5: 20 to 50 µM; 6: < 1 µM; 7: < 0.1 µM

Please state IC50 for every compound in the list that follows.
1. CCOC(=O)c1sc2c(c1C)c(=O)n(CC#N)c(=O)n2CCc1ccccc1 [I-43]
2. CCOC(=O)c1sc2c(c1C)c(=O)n(C(C)(C)C(=O)O)c(=O)n2CCc1ccc(I)cc1 [I-95]
3. Cc1c(-c2ncco2)sc2c1c(=O)n(C(C)(C)C(=O)O)c(=O)n2C[C@@H](OC1CCOCC1)c1ccccc1Cl [I-251]
4. Cc1c(-c2ncco2)sc2c1c(=O)n(Cc1nn[nH]n1)c(=O)n2C[C@H](OC(C)C)c1ccccc1 [I-153]
5. Cc1c(-c2ncco2)sc2c1c(=O)n(C(C)(C)C(=O)O)c(=O)n2CCc1ccccc1 [I-117]
6. CCOC(=O)c1sc2c(c1C)c(=O)n(CC(=O)O)c(=O)n2CC(O)c1ccccc1 (stereo not shown) [I-60]

1. 5 to 20 µM
2. 20 to 50 µM
3. < 5 µM
4. < 1 µM
5. < 5 µM
6. < 5 µM

These measurements were taken from patent US9453026B2.
